Measured UVB Irradiated Keratinocytes score by item
tested on: Human primary foreskin keratinocytes; experiment: UVB irradiation of keratinocytes measuring DNA damage (nuclear thymine dimer staining); format: cell-based; settings: normalized to best performer = 20 points
outcome.measure: UVB Irradiated Keratinocytes score (points)

compound: Cc1c(C)c2c(c(C)c1O)CCC(C)(CCCC(C)CCCC(C)CCCC(C)C)O2 (racemic)
tested.on: Human primary foreskin keratinocytes
unit.of.measure: points
data.value: 17

compound: COC1=C(OC)C(=O)C(C/C=C(\C)CC/C=C(\C)CC/C=C(\C)CC/C=C(\C)CC/C=C(\C)CC/C=C(\C)CC/C=C(\C)CC/C=C(\C)CC/C=C(\C)CCC=C(C)C)=C(C)C1=O
tested.on: Human primary foreskin keratinocytes
unit.of.measure: points
data.value: 17

compound: O=C(O)CCCCC1CCSS1 (racemic)
tested.on: Human primary foreskin keratinocytes
unit.of.measure: points
data.value: 7

compound: c1coc(CNc2ncnc3[nH]cnc23)c1
tested.on: Human primary foreskin keratinocytes
unit.of.measure: points
data.value: 17

compound: COC1=C(OC)C(=O)C(CCCCCCCCCCO)=C(C)C1=O
tested.on: Human primary foreskin keratinocytes
unit.of.measure: points
data.value: 20

compound: O=C1O[C@H]([C@@H](O)CO)C(O)=C1O
tested.on: Human primary foreskin keratinocytes
unit.of.measure: points
data.value: 17

---

test system: Human primary foreskin keratinocytes; assay: UVB irradiation of keratinocytes measuring DNA damage (nuclear thymine dimer staining); type: cell-based; design: concentration or dose not given beside the values; conditions: 200 mJ/cm2 UVB; relative to irradiated control
outcome.measure: Inhibition of photoproduct generation (protective effect) (%)

molecule: O=C1O[C@H]([C@@H](O)CO)C(O)=C1O
data.value: 36

molecule: COC1=C(OC)C(=O)C(C/C=C(\C)CC/C=C(\C)CC/C=C(\C)CC/C=C(\C)CC/C=C(\C)CC/C=C(\C)CC/C=C(\C)CC/C=C(\C)CC/C=C(\C)CCC=C(C)C)=C(C)C1=O
data.value: 4

molecule: c1coc(CNc2ncnc3[nH]cnc23)c1
data.value: 36

molecule: O=C(O)CCCCC1CCSS1 (racemic)
data.value: 0

molecule: Cc1c(C)c2c(c(C)c1O)CCC(C)(CCCC(C)CCCC(C)CCCC(C)C)O2 (racemic)
data.value: 34

molecule: COC1=C(OC)C(=O)C(CCCCCCCCCCO)=C(C)C1=O
data.value: 45
